Source of measurements: patent US20210009564A1

Target: Human Calpain 1/NS1 (Homo sapiens, UniProt P07384)
Sequence (P07384 whole entry): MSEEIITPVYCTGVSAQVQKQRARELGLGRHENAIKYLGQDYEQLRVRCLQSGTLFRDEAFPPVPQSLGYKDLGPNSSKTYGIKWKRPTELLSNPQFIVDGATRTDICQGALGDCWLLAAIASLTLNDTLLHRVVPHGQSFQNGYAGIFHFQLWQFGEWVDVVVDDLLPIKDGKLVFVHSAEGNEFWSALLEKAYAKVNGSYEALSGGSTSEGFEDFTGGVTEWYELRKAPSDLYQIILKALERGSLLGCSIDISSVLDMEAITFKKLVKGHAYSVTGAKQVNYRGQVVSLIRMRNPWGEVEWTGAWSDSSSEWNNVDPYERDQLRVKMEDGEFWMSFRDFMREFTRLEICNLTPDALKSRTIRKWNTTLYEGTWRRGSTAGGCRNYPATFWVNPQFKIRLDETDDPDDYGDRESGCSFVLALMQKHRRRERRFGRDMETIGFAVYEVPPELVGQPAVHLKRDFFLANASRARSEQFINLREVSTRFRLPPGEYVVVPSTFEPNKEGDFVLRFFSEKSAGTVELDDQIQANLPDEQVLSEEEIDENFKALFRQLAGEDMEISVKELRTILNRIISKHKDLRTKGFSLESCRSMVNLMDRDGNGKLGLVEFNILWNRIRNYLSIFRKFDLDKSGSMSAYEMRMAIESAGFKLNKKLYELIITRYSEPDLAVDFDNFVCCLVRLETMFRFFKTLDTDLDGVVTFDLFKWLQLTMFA
Sequence (P04632 whole entry partner): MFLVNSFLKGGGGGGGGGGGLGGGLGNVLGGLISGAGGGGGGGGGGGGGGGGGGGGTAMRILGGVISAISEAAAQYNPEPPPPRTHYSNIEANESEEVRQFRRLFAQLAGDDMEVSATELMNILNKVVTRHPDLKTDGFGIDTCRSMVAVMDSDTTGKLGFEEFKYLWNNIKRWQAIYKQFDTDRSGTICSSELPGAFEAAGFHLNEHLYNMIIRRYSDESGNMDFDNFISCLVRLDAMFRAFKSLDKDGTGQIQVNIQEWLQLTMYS
Assay: Calpain inhibition, continuous fluorescence (FRET substrate) assay, calpain 1
Conditions: SensoLyte 520 FRET substrate, 25C
Method: Calpain 1, 2, and 9 activity and inhibition thereof was assessed by means of a continuous fluorescence assay. The SensoLyte 520 Calpain substrate (Anaspec Inc) was optimized for detecting calpain activity. […] Calpains 1, 2, and 9 cleave the FRET substrate into two separate fragments resulting in an increase of 5-FAM fluorescence that is proportional to calpain activity Assays were typically setup in black 384-well plates using automated liquid handling as follows. […]
REPORTED_METRIC: IC50

Use these answered entries as a reference point.
COC(=O)C(=O)C(Cc1ccccc1)NC(=O)c1cn(C)nc1-c1ccccc1F (stereo not shown) :: < 3 µM
Cn1ncc2c(-c3nn(C(F)F)cc3C(=O)NC(Cc3ccccc3)C(=O)C(N)=O)cccc21 (stereo not shown) :: < 3 µM
COc1cc2nccc(-c3nn(C)cc3C(=O)NC(Cc3ccccc3)C(=O)C(N)=O)c2cc1OC (stereo not shown) :: < 3 µM
Cn1cc(C(=O)NC(Cc2ccccc2)C(=O)C(N)=O)c(-c2cccc3cnn(C)c23)n1 (stereo not shown) :: 3 to 10 µM
O=C(NC(Cc1ccccc1)C(=O)c1nc2ccccc2o1)c1nsnc1-c1ccccc1 (stereo not shown) :: > 10 µM

Query :: Give the reported IC50 for NC(=O)C(=O)C(Cc1ccccc1)NC(=O)c1cn(C(F)F)nc1-c1cnc2ccccc2n1 (stereo not shown) (system: Human Calpain 1/NS1 (Homo sapiens, UniProt P07384)).
Result :: < 3 µM

Query :: Field entry: O=C(NC(Cc1ccccc1)C(=O)c1ncco1)c1nsnc1-c1ccccc1 (stereo not shown)
Result :: > 10 µM

Query :: Would you kindly repeat that for Cc1cc(-c2nn(C)cc2C(=O)NC(Cc2ccccc2)C(=O)C(N)=O)c(C)o1 (stereo not shown) ?
Result :: < 3 µM

Query :: Lookup Cc1nc(-c2ccccc2F)c(C(=O)NC(Cc2ccc(F)cc2)C(=O)C(N)=O)o1 (stereo not shown)
Result :: < 3 µM

Query :: Next: Cn1cc(C(=O)NC(Cc2ccccc2)C(=O)C(N)=O)c(-c2cccc3ccncc23)n1 (stereo not shown)
Result :: < 3 µM

Query :: Let us now turn to CNC(=O)c1cccc(-c2nn(C)cc2C(=O)NC(Cc2ccccc2)C(=O)C(N)=O)c1 (stereo not shown)
Result :: < 3 µM

Query :: Subsequent entry: NC(=O)C(=O)C(Cc1ccccc1)NC(=O)c1oc(C(F)F)nc1-c1cccc2cn[nH]c12 (stereo not shown)
Result :: < 3 µM

Query :: Repeat for the following molecule: Cc1nc(-c2c(F)cccc2F)c(C(=O)NC(Cc2ccccc2)C(=O)C(N)=O)o1 (stereo not shown)
Result :: < 3 µM

Query :: Same question, Cn1cc(C(=O)NC(Cc2ccccc2)C(=O)C(N)=O)c(-c2cccc3ncoc23)n1 (stereo not shown) this time
Result :: < 3 µM

Query :: Same thing, different molecule: Cc1nc(-c2ccoc2C)c(C(=O)NC(Cc2ccccc2)C(=O)C(N)=O)o1 (stereo not shown)
Result :: < 3 µM

Query :: Lookup NC(=O)C(=O)C(Cc1ccccc1)NC(=O)c1cn(C(F)F)nc1-c1cccc2cccnc12 (stereo not shown)
Result :: < 3 µM
